System: alternansucrase
TEST METHOD NOTES: Comparison of acceptor strengths with alternansucrase, relative amount of alternan formed
CONDITION INFO: text summary of Table I
METRIC NAME: acceptor strength for alternansucrase, in words

>>> reading("OC[C@@H](O)[C@@H](O[C@H]1O[C@H](CO)[C@@H](O)[C@H](O)[C@H]1O)[C@H](O)[C@@H](O)CO")
"excellent acceptor"
>>> reading("OC[C@H]1O[C@H](O[C@H]2[C@H](O)[C@@H](O)[C@H](O)O[C@@H]2CO)[C@H](O)[C@@H](O)[C@@H]1O")
"excellent acceptor"

* * *

Tested on: alternansucrase
TEST METHOD NOTES: Comparison of acceptor strengths with alternansucrase, relative amount of alternan formed
CONDITION INFO: 45 μL 10% (w/v) sucrose, 45 μL 10% (w/v) acceptor, 10 μL alternansucrase, pH 5.4, room temperature; less alternan = stronger acceptor
# Alternan (Rel. %) per record follows
All answers are understood in Rel. %, so give the number only.

Input: Need Alternan (Rel. %), item OC[C@H]1O[C@H](OC[C@H]2O[C@H](OC[C@H]3O[C@H](O[C@H]4[C@H](O)[C@@H](O)C(O)O[C@@H]4CO)[C@H](O)[C@@H](O)[C@@H]3O)[C@H](O)[C@@H](O)[C@@H]2O)[C@H](O)[C@@H](O)[C@@H]1O (stereo partly shown)
Output: 36

Input: Check COC1OCC(O)C(O)C1O [β-methyl-D-xyloside] too.
Output: 96

Input: Item: O=C[C@H](O)[C@H](O)[C@H](O)[C@H](O)CO
Output: 75

Input: Please do the same for O=C[C@H](O)[C@H](O)[C@H](O)CO as well.
Output: 93
